Test system: HOP-62
method-notes: Cytotoxicity against human Hop62 cells by sulforhodamine B assay
Format: functional, cell-based
Reported IC50 is given for each of the following molecules.

Use these answered entries as a reference point.
{"columns": ["structure-as-smiles", "system-name", "reading"],
 "data": [
  ["COc1cc2c(cc1OCCCC(=O)Nc1cccc3c1C(=O)c1ccccc1C3=O)N=C[C@@H]1CCCN1C2=O", "HOP-62", "800 nM"],
  ["COc1cc2c(cc1OCCCCCOc1ccc(OCCCCCOc3cc4c(cc3OC)C(=O)N3CCC[C@H]3C=N4)c3c1C(=O)c1ccccc1C3=O)N=C[C@@H]1CCCN1C2=O", "HOP-62", "1400 nM"],
  ["COc1cccc2c1C(=O)c1c(O)c3c(c(O)c1C2=O)C[C@@](O)(C(=O)CO)C[C@@H]3O[C@H]1C[C@H](N)[C@H](O)[C@H](C)O1", "HOP-62", "1000 nM"],
  ["COc1cc2c(cc1OCCCCC(=O)Nc1cccc3c1C(=O)c1ccccc1C3=O)N=C[C@@H]1CCCN1C2=O", "HOP-62", "1000 nM"]
]}

Alright, here's another molecule for you.
Bench note: what IC50 did COc1cc2c(cc1OCCCOc1ccc(OCCCOc3cc4c(cc3OC)C(=O)N3CCC[C@H]3C=N4)c3c1C(=O)c1ccccc1C3=O)N=C[C@@H]1CCCN1C2=O show?
< 1000 nM
